Target: Peroxisome proliferator-activated receptor delta (Homo sapiens)
Experiment: Agonist activity at Gal4-tagged human PPARdelta expressed in HEK293 cells at 3 to 30 uM incubated for 16 to 20 hrs by luciferase and beta-galactosidase activity based reporter gene assay
Format: cell-based
Activity calls are given as the source filed them. No cut-off for these calls is given here.
Labels: label 1 = active, label 0 = inactive

[
  {
    "Structure string": "CCCCCCCC[Si](CC)(CC)CCCCCCC(=O)NCCO",
    "Group": "label 0"
  },
  {
    "Structure string": "CCCCCCCC[Si](CCC)(CCC)CCCCCCCC(=O)NCCO",
    "Group": "label 1"
  },
  {
    "Structure string": "CCCCCCCC[Si](CCCC)(CCCC)CCCCCCCC(=O)NCCO",
    "Group": "label 0"
  },
  {
    "Structure string": "CCCCCCC[Si](CC)(CC)CCCCCCCC(=O)NCCO",
    "Group": "label 1"
  },
  {
    "Structure string": "CCCCCCCC[Si](CC)(CC)CCCCCCCC(=O)NCCO",
    "Group": "label 1"
  },
  {
    "Structure string": "CCCCCCCC[Si](C)(C)CCCCCCCC(=O)NCCO",
    "Group": "label 1"
  }
]
